Data origin: ChEMBL document CHEMBL2331550

- system: Translocator protein (Rattus norvegicus)
- Sequence (P16257 whole entry, looked up): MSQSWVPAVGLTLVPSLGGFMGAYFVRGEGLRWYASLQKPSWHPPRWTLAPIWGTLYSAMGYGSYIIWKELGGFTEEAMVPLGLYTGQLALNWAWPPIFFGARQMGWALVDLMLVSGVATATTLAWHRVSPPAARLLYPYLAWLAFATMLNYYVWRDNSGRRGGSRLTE
pKi: −log10 of the molar value.

record.smiles: CN(C(=O)Cn1c(=O)n2c3c(cc(-c4ccccc4)cc31)CCC2)c1cccc(Cl)c1
pKi: 9.36
//
record.smiles: CN(C(=O)Cn1c(=O)n2c3c(cc(-c4ccccc4)cc31)OCC2)c1ccccc1
pKi: 9.68
//
record.smiles: CN(C(=O)Cn1c(=O)n2c3c(cc(-c4ccccc4)cc31)CCC2)c1ccccn1
pKi: 8.60
//
record.smiles: CN(Cc1ccccc1)C(=O)Cn1c(=O)n2c3c(cc(-c4ccccc4)cc31)CCC2
pKi: 9.64
//
record.smiles: CN(C(=O)Cn1c(=O)n2c3c(cc(-c4ccccc4)cc31)CCC2)c1ccccc1
pKi: 9.03

----------
- assay.info: Aqueous solubility of the compound at pH 2.5
- Assay type: physicochemical
quantity: solubility

record.smiles: CN(C(=O)Cn1c(=O)n2c3c(cc(Nc4cccnc4)cc31)CCC2)c1ccccc1
value.reported: > 1000 µg/mL

----------
- assay.info: Aqueous solubility of the compound at pH 7.4
- Type: physicochemical

record.smiles: CN(C(=O)Cn1c(=O)n2c3c(cc(Nc4cccnc4)cc31)CCC2)c1ccccc1
solubility: 4 µg/mL

----------
- assay.info: Metabolic stability in rat liver S9 fraction assessed as compound remaining at 10 uM after 30 mins
- Format: ADME, subcellular
- details: read-out: Stability
The following compounds are listed with their measured remaining at 0.5 h, 10 µM values.

record.smiles: CN(C(=O)Cn1c(=O)n2c3c(cc(Br)cc31)CCC2)c1ccccc1
remaining at 0.5 h, 10 µM / %: 0
--
record.smiles: COc1ccc(N(C)C(=O)Cn2c(=O)n3c4c(cc(-c5ccccc5)cc42)CCC3)cc1
remaining at 0.5 h, 10 µM / %: 0
--
record.smiles: CN(C(=O)Cn1c(=O)n2c3c(cccc31)CCC2)c1ccccc1
remaining at 0.5 h, 10 µM / %: 0
--
record.smiles: COc1ccc(-c2cc3c4c(c2)n(CC(=O)N(C)c2ccccc2)c(=O)n4CCC3)cc1
remaining at 0.5 h, 10 µM / %: 2
--
record.smiles: CN(C(=O)Cn1c(=O)n2c3c(cc(-c4cccnc4)cc31)CCC2)c1ccccc1
remaining at 0.5 h, 10 µM / %: 0

----------
Listed compounds paired with reported inhibition
- Species: Rattus norvegicus
- assay.info: Displacement of [3H]flumazenil from CBR in Sprague-Dawley rat cerebral cortex membrane at 10 uM after 1 hr by liquid scintillation counting analysis
- Type: tissue-based

record.smiles: CN(C(=O)Cn1c(=O)n2c3c(cc(-c4ccccc4)cc31)CCC2)c1cccc(Cl)c1
u: %
inhibition: 3
//
record.smiles: CCCN(CCC)C(=O)Cn1c(=O)n2c3c(cc(-c4ccccc4)cc31)CCC2
u: %
inhibition: 11
//
record.smiles: CN(C(=O)Cn1c(=O)n2c3c(cc(-c4ccccc4)cc31)CCC2)c1cccnc1
u: %
inhibition: 36
//
record.smiles: CN(C(=O)Cn1c(=O)n2c3c(cc(-c4ccccc4)cc31)CCC2)c1ccc(Cl)cc1
u: %
inhibition: 4
//
record.smiles: CN(C(=O)Cn1c(=O)n2c3c(cc(-c4ccccc4)cc31)CCCC2)c1ccccc1
u: %
inhibition: 30
//
record.smiles: COc1ccc(N(C)C(=O)Cn2c(=O)n3c4c(cc(-c5ccccc5)cc42)CCC3)cc1
u: %
inhibition: 3
//
record.smiles: CN(C(=O)Cn1c(=O)n2c3c(cc(-c4ccccc4)cc31)CCC2)c1ccccc1
u: %
inhibition: 14
//
record.smiles: CN(C(=O)Cn1c(=O)n2c3c(cc(-c4ccccc4)cc31)CCC2)c1ccccn1
u: %
inhibition: 34
//
record.smiles: CN(C(=O)Cn1c(=O)n2c3c(cc(-c4ccccc4)cc31)OCC2)c1ccccc1
u: %
inhibition: 68
//
record.smiles: O=C(Cn1c(=O)n2c3c(cc(-c4ccccc4)cc31)CCC2)Nc1ccccc1
u: %
inhibition: 27
//
record.smiles: COc1cccc(N(C)C(=O)Cn2c(=O)n3c4c(cc(-c5ccccc5)cc42)CCC3)c1
u: %
inhibition: 6
//
record.smiles: CN(C(=O)Cn1c(=O)n2c3c(cc(-c4ccccc4)cc31)CCC2)c1ccncc1
u: %
inhibition: 24
//
record.smiles: CN(Cc1ccccc1)C(=O)Cn1c(=O)n2c3c(cc(-c4ccccc4)cc31)CCC2
u: %
inhibition: 72
